Procedure text: yeast display, Sf9 membrane polyspecificity reagent, FACS + sequencing; frameworks hold sequencing errors
Quantity: polyreactivity (PSR sort gate)

Record excerpt, results attached:
QVQLQESGVRMVQAGGSLRLSCAASGNIFLGDTMGWYRQAPGKEREFVAGIARGGNPYYADSEKGRLTISRNNANNTVYLEKISLKPEDSAVHYCSVQRSDASDYNYWGQGTQVTVIS: low polyreactivity
QVQLVESGGGLVQAGGSLRLSCAASGSIFRYYAMGWYRQAPGKERELVAAITGRGGSTYYADSVKGRFTISRDNAKNTVYLQMNSLKPEDTAVYYCADYIDANVHRFDYWGQGTQVTVSS: low polyreactivity
QVQLVESGGGLVQAGGSLRLSCAASGRTFAPYAMGWYRQAPGKERELVAAISWSGGSTYYADSVKGRFTISRDNAKNSVYLQMNSLKPEDTAVYYCAVVVDYDADRYWGYDYWGQGTQVTVSS: high polyreactivity
QVQLVESGGGLVQAGGSLRLSCAPSGRNFTYYDMGRYRQAPGKEREFVAVISDNDSSTYADSVKGRFTISPDNAKNTVYLQMNRLKPEDTAVYYCNAYRQYRSWRYDYWGQGTQVTVSS: high polyreactivity

Read the entry `QDQLVESWGGLVQAGGSLRLSCASSGITVYGYTMGWYRQAPGKERELVAGISRGGSTYYADSVKGRFTISRDNAKNTVYLQINSLKPEDTAVYYCAVESFYRHASLYDYWGQGTQVTVSS` and write its reported polyreactivity (PSR sort gate).
high polyreactivity

###

Procedure text: yeast display, Sf9 membrane polyspecificity reagent, FACS + sequencing; frameworks hold sequencing errors
Quantity: polyreactivity (PSR sort gate)

QVQLVESGGGLVHAGGSLRLSCAASGRTFQWNRMVWYRQAPGKERELVATIRRGGSTNYADSVKGRFTISRDNAKNTVYLQMNSLKPEDTAVYYCAADRRYPGGWGFEYNYWGQGTQVTVSS: low polyreactivity
QVQHVESGGGLGQAGGSLRLSCAASGGTFQTNAKGCYRQAPGKERELVAGIRWRGGSTYYADSVKGRFTISRDNAKNTVYLQMKSLKPEDTAVYYCAAYYWQGTYDSRRTGWRLMNYWGQGTQVTVSS: high polyreactivity
QVQLVESGGGLVQAGGSLRLSCAASGFTFGYYAMGWYRQAPGKERELVATISYGGGSTYYADSVKGRFTISRDNAKNTVYLQMNSLKPEDSAVYYCAASYLVQAPVSGYVYRMYYWGQGTQVTVSS: high polyreactivity
QVQLGESGGGLVQAGGSLRLCCAASGRIFVRYTRGWYRQAPGKERELVAAIDQRGGSTYYADSVKGRFTISRDNANNTVSLQLNSLKPEDTAVYYCARVASRTRPGYGYWGQGTQVTVSS: low polyreactivity

Continue with the next sequence.
Specify reported polyreactivity (PSR sort gate) for the sequence shown: `QVQLVESGGGLVQAGGSLRLSCAASGSTFISNTMGWYRQAPGKERELVAGISSIGGITYYADSVKGRFTISRDNAKNTVYLQMNSLKPEDTAVYYCAKLDVISDDLDYWGQGTQVTVSS`
low polyreactivity

###

Procedure text: yeast display, Sf9 membrane polyspecificity reagent, FACS + sequencing; frameworks hold sequencing errors
Quantity: polyreactivity (PSR sort gate)

Some sequences with known polyreactivity (PSR sort gate) results, for comparison:
QVQLVESGGGLVQAGGSLRLSCAASGSTILQNAMGWYRQAPGKERELVAAISRSGGSTYYADSVKGRFTISRDNAKNTVYLQMNSLKPEDTAVYYCARRYWPGSAYWIYDYWGQGTQVTVSS: high polyreactivity
QVQLVESGGRLVQAGGSLRLSCAASGSTFSRNARGWNRQAPGKERELVAAISRSSSRTYYADSVKGRFTISRDNAKNTVYLQMNSLKPEDTAVYYCAADGYVWTPYLYDYWGQGTQVTVSS: high polyreactivity
QVQLVESGGGLVQAGGSLRLSCAASGRIFWYYAMGWYRQAPGKERELVAAINSGGNTNYADSVKGRFTISRDNAKNTVYLQMNSLKPEDTAVYYCNAGRRYDTYPGDYWGQGSQVTVSS: high polyreactivity
QVQLVESGGGLVQAGGILRLSCAASGRIFVLNPMGWSRQAPGKERELVAASSGSGSRTYYADSVKGRFTISRDNAKNTVYLQMNSLKPEDTEVYYCNTVSRRSEHTYDYWGQGTQVTVSS: high polyreactivity
QVQLVESGGGLVQAGGSLRLSCAASGFISVRNAMGWYRQAPGKERELVAAISSGDTTDYADSVKGRFTISRDNAKNTVSLQMNSLKAEDTAVYYCAAVYYGRYYYWGQGTQVTVSS: low polyreactivity

Annotate the sequence `QVQLVESGGGLVQAGGSLRISCAASGNIFSVNAMGWYRQAPGKEREFVAAISGSGGSTYYADSVKGRFTISRDNAKNTVYLQMNSLKPEDTAVYYCAKRWYHPSSLPRYVFRGVDYWGQGTQVTVSS` with its measured polyreactivity (PSR sort gate).
high polyreactivity

Give the value of polyreactivity (PSR sort gate) reported for the following: `QVQLVESGGGLVQAGGSLRLSCAASGSIFGKYAMGWYRQAPGKERELVAAISYSGGSTYYADSVKGRFTISRDNAKNTVYLQMNSLKPEDTAVYYCAVRGWGSAGKYDYWGQGTQVTVSS`
high polyreactivity

Hello, please tell me recorded polyreactivity (PSR sort gate) for this one: `QVQLVESGGCLVQAGGSLRLSCPASGFTLPANGMGWYRQAPGKERELVAAISFIAGSTYYADSVKGRFTISRDNAKNTVYLQMNSLKPEDTEVYYCATQFPPSTIYDYWGQGSQVTVSS`
low polyreactivity

###

Procedure text: yeast display, Sf9 membrane polyspecificity reagent, FACS + sequencing; frameworks hold sequencing errors
Quantity: polyreactivity (PSR sort gate)

Use these answered entries as a reference point.
QVQLVDSGGGLVQAGGRLRLSCAASGSIYAAYTMGRYRQAPGKERELVAAISVSTVSTYYADSVKGRFTISRDNAKNTVYLQMNSLKPDDTAVYYCNADATYSYPEKDEPDSWGQGTQVTVSS: low polyreactivity
QVQLVESGGGLVQAGGSLRLRCAASGSIFVSNTMGWYRQAPGKEREMVASIRETAGSTNYADSVKGRFTISRDYAKNTVYLQMNSLKPEDTEVYYCAARYSPTRYHYGYWGQGTQVTVSS: low polyreactivity
QVQLVESGGGLVQAGGSLRLSCAASGSTFDYYAMGWSRQAPGKERELVAAITGTGGSTYYADSEKGRFTISRNNAKNTVYLQMNSLKPEDTAVYYCNRVSGTRRHTMDYWGQGTQVTVSS: low polyreactivity
QVQLVESGGGLVQAGGSLRLSCAASGRIFNRNAMGWYRQPPGKERELGAAISRSGSRTYYADSVKWRFTISRDNAKNTVYLQMNSLKPEDTAVYYCAVSGYSPYLYRYGYWGQGTQETVSS: high polyreactivity
QVQLVESGGGLVQAGGSLRLSCAASGFIFTVYAMGWYRQAPGKERELVAAINRSGTRTTYADSVKGRFSISRDNAKNTVYIQMNSLKPEDTAVYYCAALSTGSHWQNEYGYWGQGTQVTVSS: low polyreactivity
QVQLVESGGGLVQAGGSLRLSCAASGSILSYYAMGWYRQAPGKERELVAAISKSGGRTYYADSVKGRFTISRDNAKNTVYLQMNSLKPEETAVYYCAAEIVVFYSEGQRNTFYYWGQGTQVTVSS: high polyreactivity

Fill in reported polyreactivity (PSR sort gate) for this entry: `QVQLVESGGGLVQAGGSLRLSCAASGITFYYYTMGWYRQAPGKERELVAAITSRGGNTYYADSVKGRFTISRDYAKNTVYLQMNSLKPEDTAVYFCAASRFSSRGYGYWGQGTQVTVCS`
high polyreactivity

Please list polyreactivity (PSR sort gate) recorded for the sequence `QVQLVESGGGLVQAGGSLRLSCAASGFTFYAYAMGWYRQAPGKERELVAAISRTGGRTYYADSVKGRFTISRDNAKNTVYLQMNSLKPEDTAVYYCNRAGLHSTGYDYWGQGTQVTVSS`
high polyreactivity

Give me measured polyreactivity (PSR sort gate), please, for this sequence: `QVQLVESGGGLVQAGGSLRLSCAASGNTFLIYAMGWYRQAPGKERELVAGITSSGSTYYADSVKGRFTISRDNAKNTVYLQMNSLKPEDTAVFYCAAEYIFYLYYDTAELYDYWGQGTQVTVSS`
low polyreactivity

Given the sequence `QVQLVESGGGLVQAGGSLRLSCAASGSIFPRYAMGWYRQAPGKERELVAAITGSGSSTYYADSVKGRFTISRDNAKNTVYLQMNSLKPEDTAVYYCADRFIWGYWGVGYYYWGQGTQVTVSS` , write its reported polyreactivity (PSR sort gate).
low polyreactivity

Give the measured polyreactivity (PSR sort gate) for `QVQLVESGGGLVQAGGSLRLSCAASGRIIGKNVMGWYRQAPGKERELVAAISKSGGSTYYADSVKGRFTISRDNAKNTVYLQMNSLKPEDTAVYYCAAKYYYHWHRQGYDYWGQGTQVTVSS`
high polyreactivity

###

Procedure text: yeast display, Sf9 membrane polyspecificity reagent, FACS + sequencing; frameworks hold sequencing errors
Quantity: polyreactivity (PSR sort gate)

QVQLEESGGGLVQAGGSLRLSCAASGSTFVEYAMGWYRQAPGKERELVAAITASGGSTYYADSVKGRFTISRDNAKNTVYLQMNSLKPEDTAVYYCAVTTRSRGFRDIDYWGQGTQVTVSS: low polyreactivity
QVQLVESGGGLVQAGGSLRLSCAASGLNFWLNAMGWYRQAPGKERELVAAISRGGSTNYADSVKGRFTNSRDNAKNTVYLQMNSLKPEDTAVYYCAAGSRRAACYDYSYPYGYWGQGSQVTVSS: high polyreactivity
QVQLVESGGGLVQAGGSLRLSCAASGFIFKPYTMAWYRQAPGKERELVATITFSGGSTYYADSVKGRFTISRDNAKNTVYLQMNSLKPEDTAVYYCAAPRYYRGYAIYDYWGQGTQVTVSS: low polyreactivity
QVQLVEYGGGLVQAGGSLRLSCAASGRIFNYYAMGWYRQAPGKEREFVAAITRSGGRTYYADSVKGRFTISRDNAKNTVYLQMNILKPEDTAVYYCAAPYGTYAYDYSGQGTQVTVSS: high polyreactivity
QVQLVESGGGLVQAGGSLRLSCSASGSTFVTNVIGWYRQAPGKERELVAAISYSGGNTYYEDSVKGRFTISRDNAKNTVYLQMNSLKPEDTAVYYCAASYKPFKKMGYWGQGTQVTVSS: high polyreactivity
QVQLVESRGGLVQAGGSLRLSCAASGSIFAIYTMGWYRQAPGKERELVAAITGNGGRTYYADSVKGRFTISRDNAKNTVYLQMNSLKPEDTAVYYCAVVGYHRDYDYWGQGTQVTVSS: low polyreactivity

Indicate the recorded polyreactivity (PSR sort gate) value for this sequence: `QVQLVESGGGLVHAGGSLRLSCAASGSIYGANDMGWYRKATGKERELVAAITRSGTRTYYADSVKGLFTISRDNAKNTVYLQMNSLKPEDTAVYYCAAVLRLSTLTTDFGYWGQGTQVTVSS`
high polyreactivity

Look up polyreactivity (PSR sort gate) of `QVQLVESGGGLVQAGGSLRLICAASGSIFVLYAMGWYRTAPGKERELVAAINYDGASTYYADSVKGRFTISRDNANNTFYLQMNSLKPKDTAVYYCAADVSYPVIYEYDYGGQGTQVTVSS` and report it.
low polyreactivity

Identify the reported polyreactivity (PSR sort gate) for the following entry. `QVQLVESGGGLVQAGGSLRLSCAASGSTYYTYAMGWYRQAPGKERELVAAITYSDGDTYYADSVKGRFTISRDNAKHTVYLQMNSLKPEDTAVYYCAADYQGQPGTGNLEYWGQGTQVTVSS`
low polyreactivity

# return recorded polyreactivity (PSR sort gate) for input `QVQLVESGGGLVQAGGSLRLSCAASAFYTNAMGWYRQAPGKERELVAAITSDGDSTYYADSVKGRFTISRDNAKNTVYLQMNSLKPEDNAVYYCAADAVPTSVVDWGFYGMYWGQGTQVTVSS`
low polyreactivity

Quote polyreactivity (PSR sort gate) reported for `QVQLVESGGGLVQAGGSLRLSCAASGLTFSKYAMGWYRQAPGQERELVAAITRGDRTYSADSVKGRFTISRDNAKNTVYLQMNSLKPEDTAVYYCAARQYYWGQGTQVTVSS` please.
high polyreactivity

Reference for the values: the nanobody polyreactivity screen of Harvey et al. (2022)
